Biological target: EGFR Δ19del/T790M/C797S (Homo sapiens, UniProt P00533, T790M/C797S, form not given)
Sequence (P00533 with tags, fused parts or gaps DEL746-750/T790M/C797S, form open): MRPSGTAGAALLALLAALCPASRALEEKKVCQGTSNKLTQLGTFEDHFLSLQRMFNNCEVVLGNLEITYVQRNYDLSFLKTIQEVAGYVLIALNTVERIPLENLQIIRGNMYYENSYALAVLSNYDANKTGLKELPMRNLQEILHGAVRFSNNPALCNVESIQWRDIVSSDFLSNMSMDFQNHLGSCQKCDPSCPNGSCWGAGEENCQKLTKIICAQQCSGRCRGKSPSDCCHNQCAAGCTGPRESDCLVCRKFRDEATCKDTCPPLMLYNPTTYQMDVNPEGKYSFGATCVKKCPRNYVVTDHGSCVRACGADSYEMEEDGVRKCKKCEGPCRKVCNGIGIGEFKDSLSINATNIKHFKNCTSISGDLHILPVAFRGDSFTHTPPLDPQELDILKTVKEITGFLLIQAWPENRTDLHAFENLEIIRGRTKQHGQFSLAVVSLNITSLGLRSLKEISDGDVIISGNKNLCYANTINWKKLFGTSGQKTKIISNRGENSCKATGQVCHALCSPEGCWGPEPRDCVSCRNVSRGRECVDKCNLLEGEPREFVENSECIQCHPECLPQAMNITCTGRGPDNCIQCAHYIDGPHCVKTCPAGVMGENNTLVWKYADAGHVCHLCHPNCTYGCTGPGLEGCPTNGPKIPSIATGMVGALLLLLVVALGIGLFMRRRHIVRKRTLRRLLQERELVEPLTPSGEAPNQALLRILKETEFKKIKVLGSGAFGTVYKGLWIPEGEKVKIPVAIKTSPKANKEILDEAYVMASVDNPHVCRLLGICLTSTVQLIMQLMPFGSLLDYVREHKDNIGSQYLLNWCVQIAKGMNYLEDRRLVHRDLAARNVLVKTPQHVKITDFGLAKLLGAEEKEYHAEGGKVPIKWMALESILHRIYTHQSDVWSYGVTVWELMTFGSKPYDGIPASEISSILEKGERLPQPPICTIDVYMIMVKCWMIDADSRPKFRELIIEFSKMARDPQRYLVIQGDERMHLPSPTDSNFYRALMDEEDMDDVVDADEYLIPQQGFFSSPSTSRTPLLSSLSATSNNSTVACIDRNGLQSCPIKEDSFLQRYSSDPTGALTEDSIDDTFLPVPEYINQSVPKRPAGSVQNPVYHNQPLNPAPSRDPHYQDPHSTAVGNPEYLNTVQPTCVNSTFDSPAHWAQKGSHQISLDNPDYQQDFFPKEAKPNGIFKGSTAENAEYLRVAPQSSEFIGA
Test: Kinase assay (mobility shift) for EGFR Δ19del/T790M/C797S
Conditions: read-out: EGFR Δ 19del/T790M/C797S IC50
Exercise: state measured IC50 for each of the compounds provided.

Entry C=C(F)C(=O)Nc1cc(Nc2ncc(Cl)c(Nc3ccccc3P(C)(C)=O)n2)ccc1N1CCC2(CC1)CC(N(C)C)C2 : reported IC50 = ? < 10 nM

Can you share its IC50? I mean this compound: C=CC(=O)Nc1cc(Nc2ncc(Cl)c(Nc3ccccc3P(C)(C)=O)n2)c(OC)cc1N1CCC(N2CCN(C)CC2)CC1 < 10 nM

Suppose we examine the compound C=CC(=O)Nc1cc(Nc2ncc(Cl)c(Nc3ccccc3P(C)(C)=O)n2)ccc1N(C)CCN1CCCC1 ; what IC50 value has been reported? < 10 nM

Could you tell me which IC50 is on file for C=CC(=O)Nc1cc(Nc2ncc(Cl)c(Nc3ccccc3P(C)(C)=O)n2)c(OC)cc1N1CC2(CCC(N(C)C)CC2)C1 ? < 10 nM

Entry under review: C=CC(=O)Nc1cc(Nc2ncc(C)c(Nc3ccccc3P(C)(C)=O)n2)ccc1N1CCC(N2CCN(C)CC2)CC1 . Reported IC50? < 10 nM

# input compound: C=CC(=O)Nc1cc(Nc2ncc(Cl)c(Nc3ccc4ccccc4c3P(C)(C)=O)n2)ccc1N1CCC2(CC1)CC(N(C)C)C2 ; wanted: its IC50 < 10 nM

Sample C=C(C)C(=O)Nc1cc(Nc2ncc(Cl)c(Nc3ccccc3P(C)(C)=O)n2)ccc1N1CCC2(CC1)CC(N(C)C)C2 — what was its IC50? < 10 nM

Endpoint output: IC50 of C=CC(=O)Nc1cc(Nc2ncc(Cl)c(Nc3ccccc3P(C)(C)=O)n2)ccc1N1CCN2CCC[C@H]2C1 . Value? < 10 nM

Can you look up the measured IC50 of C=CC(=O)Nc1cc(Nc2nccc(Nc3ccccc3P(C)(C)=O)n2)c(OC)cc1N1CCC(N2CCN(C)CC2)CC1 for me? 10 to 100 nM

Consider the compound C=CC(=O)Nc1cc(Nc2ncc(Cl)c(Nc3ccccc3P(C)(C)=O)n2)c(OC)cc1N1CCC2(CCC(N(C)C)CC2)CC1 and give its measured IC50. < 10 nM

Name the reported IC50 value associated with the compound C=CC(=O)Nc1cc(Nc2ncc(F)c(Nc3ccccc3P(C)(C)=O)n2)c(OC)cc1N1CCC(N2CCN(C)CC2)CC1 10 to 100 nM

What measured IC50 goes with C=CC(=O)Nc1cc(Nc2nccc(Nc3ccccc3P(C)(C)=O)n2)ccc1N(C)CCN(C)C ? 10 to 100 nM

Can you look up the measured IC50 of C=CC(=O)Nc1cc(Nc2ncc(C)c(Nc3ccccc3P(C)(C)=O)n2)c(OC)cc1N(C)CCN(C)C for me? 10 to 100 nM

Name the recorded IC50 for C=CC(=O)Nc1cc(Nc2ncc(Cl)c(Nc3ccccc3P(C)(C)=O)n2)ccc1N(C)CCN(C)C . < 10 nM

###

Provide the reported IC50 of each item.
Target: EGFR L858R (Homo sapiens, UniProt P00533, L858R)
Sequence (P00533 25-1210 L858R): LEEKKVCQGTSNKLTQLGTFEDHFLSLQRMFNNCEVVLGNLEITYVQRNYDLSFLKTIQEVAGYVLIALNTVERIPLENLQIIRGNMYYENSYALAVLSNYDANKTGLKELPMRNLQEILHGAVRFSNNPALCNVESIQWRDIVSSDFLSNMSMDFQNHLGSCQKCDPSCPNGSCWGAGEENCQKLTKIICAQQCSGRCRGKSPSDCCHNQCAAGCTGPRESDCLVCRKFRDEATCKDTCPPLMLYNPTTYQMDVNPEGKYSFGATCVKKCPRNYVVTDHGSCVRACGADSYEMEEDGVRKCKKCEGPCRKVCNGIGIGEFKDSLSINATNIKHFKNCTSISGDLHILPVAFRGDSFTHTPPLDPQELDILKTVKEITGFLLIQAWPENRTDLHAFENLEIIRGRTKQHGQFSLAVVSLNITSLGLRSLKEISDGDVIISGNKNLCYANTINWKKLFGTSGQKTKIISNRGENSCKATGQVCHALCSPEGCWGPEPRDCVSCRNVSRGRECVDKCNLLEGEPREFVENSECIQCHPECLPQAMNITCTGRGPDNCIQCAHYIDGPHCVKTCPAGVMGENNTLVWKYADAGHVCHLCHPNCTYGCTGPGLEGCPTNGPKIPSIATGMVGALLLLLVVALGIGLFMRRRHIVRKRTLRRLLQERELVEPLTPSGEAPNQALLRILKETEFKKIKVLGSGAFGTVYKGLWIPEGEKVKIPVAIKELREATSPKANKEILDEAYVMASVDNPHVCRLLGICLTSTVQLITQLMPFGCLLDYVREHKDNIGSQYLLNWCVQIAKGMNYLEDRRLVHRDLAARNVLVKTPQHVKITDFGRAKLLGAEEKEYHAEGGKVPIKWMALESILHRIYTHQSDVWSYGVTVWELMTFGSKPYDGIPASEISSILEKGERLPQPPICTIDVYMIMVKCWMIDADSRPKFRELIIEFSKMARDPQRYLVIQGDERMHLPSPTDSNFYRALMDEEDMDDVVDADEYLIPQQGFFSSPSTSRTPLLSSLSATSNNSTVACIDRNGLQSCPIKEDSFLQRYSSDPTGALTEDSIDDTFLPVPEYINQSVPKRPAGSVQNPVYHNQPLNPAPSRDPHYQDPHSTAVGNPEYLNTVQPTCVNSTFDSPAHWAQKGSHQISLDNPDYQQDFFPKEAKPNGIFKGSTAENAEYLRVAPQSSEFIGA
Test: Kinase assay (mobility shift) for EGFR L858R

IC50 lookup needed for C=CC(=O)Nc1cc(Nc2ncc(Cl)c(Nc3ccccc3P(C)(C)=O)n2)c(OC)cc1N1CCC2(CCC(N(C)C)CC2)CC1 , thanks. 10 to 100 nM

I am curious: what IC50 value has been reported for C=CC(=O)Nc1cc(Nc2ncc(Cl)c(Nc3ccccc3P(C)(C)=O)n2)c(OC)cc1N1CC2(CCC(N(C)C)CC2)C1 ? 10 to 100 nM

Can you share its IC50? I mean this compound: C=CC(=O)Nc1cc(Nc2ncc(Cl)c(Nc3ccccc3P(C)(C)=O)n2)ccc1N(C)CCN1CCCC1 < 10 nM

I'd like to know its IC50. The compound in question is C=CC(=O)Nc1cc(Nc2ncc(F)c(Nc3ccccc3P(C)(C)=O)n2)ccc1N1CCC(N2CCN(C)CC2)CC1 10 to 100 nM

Fill in: IC50 of C=CC(=O)Nc1cc(Nc2nccc(Nc3ccccc3P(C)(C)=O)n2)ccc1N1CCC(N2CCN(C)CC2)CC1 is ___ 10 to 100 nM

Please give the measured IC50 for this compound: C=CC(=O)Nc1cc(Nc2ncc(F)c(Nc3ccccc3P(C)(C)=O)n2)c(OC)cc1N1CCC(N2CCN(C)CC2)CC1 10 to 100 nM

I have this compound here, C=CC(=O)Nc1cc(Nc2nccc(Nc3ccccc3P(C)(C)=O)n2)ccc1N(C)CCN(C)C , and I need its recorded IC50. < 10 nM

Could you tell me which IC50 is on file for C=CC(=O)Nc1cc(Nc2ncc(Cl)c(Nc3ccccc3P(C)(C)=O)n2)ccc1N1CCC2(CC1)CN(C)C2 ? < 10 nM

Which measured IC50 value corresponds to C=CC(=O)Nc1cc(Nc2ncc(Cl)c(Nc3ccccc3P(C)(C)=O)n2)ccc1N1CCC2(CCC(N(C)C)CC2)CC1 ? 10 to 100 nM

Give its IC50 value. Item: C=CC(=O)Nc1cc(Nc2ncc(Cl)c(Nc3ccccc3P(C)(C)=O)n2)ccc1N1CCC2(CC1)CC(N(C)C)C2 < 10 nM

# lookup: IC50 of C=CC(=O)Nc1cc(Nc2ncc(C)c(Nc3ccccc3P(C)(C)=O)n2)c(OC)cc1N1CCC(N2CCN(C)CC2)CC1 10 to 100 nM

Need IC50, item C=CC(=O)Nc1cc(Nc2nccc(Nc3ccccc3P(C)(C)=O)n2)c(OC)cc1N1CCC(N2CCN(C)CC2)CC1 10 to 100 nM

IC50 for C=CC(=O)Nc1cc(Nc2ncc(F)c(Nc3ccccc3P(C)(C)=O)n2)ccc1N(C)CCN(C)C ? < 10 nM

I'd like to know its IC50. The compound in question is C=CC(=O)Nc1cc(Nc2ncc(Cl)c(Nc3ccccc3P(C)(C)=O)n2)ccc1N1CCN2CCC[C@H]2C1 < 10 nM

Request the reported IC50 associated with C=CC(=O)Nc1cc(Nc2ncc(C)c(Nc3ccccc3P(C)(C)=O)n2)ccc1N(C)CCN(C)C < 10 nM

So what's the measured IC50 for this one? C=CC(=O)Nc1cc(Nc2ncc(Cl)c(Nc3ccccc3P(C)(C)=O)n2)ccc1N1CC2(CCC(N(C)C)CC2)C1 10 to 100 nM

For the compound C=CC(=O)Nc1cc(Nc2ncc(Cl)c(Nc3ccccc3P(C)(C)=O)n2)c(OC)cc1N1CCC2(CC1)CC(N(C)C)C2 , what IC50 is on record? 10 to 100 nM

Recorded IC50 of C=CC(=O)Nc1cc(Nc2ncc(C)c(Nc3ccccc3P(C)(C)=O)n2)ccc1N1CCC(N2CCN(C)CC2)CC1 , please. < 10 nM

For the compound shown here, C=CC(=O)Nc1cc(Nc2ncc(Cl)c(Nc3ccccc3P(C)(C)=O)n2)c(OC)cc1N1CCC(N2CCN(C)CC2)CC1 , give the reported IC50. 10 to 100 nM

Quick one: IC50 for C=CC(=O)Nc1cc(Nc2ncc(Cl)c(Nc3ccccc3P(C)(C)=O)n2)ccc1OC1CCN(C)CC1 ? 10 to 100 nM

Any idea what its IC50 is? The compound is C=CC(=O)Nc1cc(Nc2ncc(C)c(Nc3ccccc3P(C)(C)=O)n2)c(OC)cc1N(C)CCN(C)C < 10 nM

Item C=CC(=O)Nc1cc(Nc2ncc(Cl)c(Nc3ccccc3P(C)(C)=O)n2)ccc1N1CCC(N2CCN(C)CC2)CC1 has what recorded IC50? < 10 nM

# query: IC50 of entry C=CC(=O)Nc1cc(Nc2nccc(Nc3ccccc3P(C)(C)=O)n2)ccc1N1CCC2(CC1)CC(N(C)C)C2 10 to 100 nM

Looking for the measured IC50 of C=CC(=O)Nc1cc(Nc2ncc(Cl)c(Nc3ccccc3P(C)(C)=O)n2)ccc1N1CC2(CC(N(C)C)C2)C1 , can you help? 10 to 100 nM

Could you tell me which IC50 is on file for C=CC(=O)Nc1cc(Nc2ncc(Cl)c(Nc3ccccc3P(C)(C)=O)n2)ccc1N(C)CCN(C)C ? < 10 nM
